# assayed_system: Syk tandem SH2 (tSH2) domain
# measurement_description: FP; 50 mM KCl, 100 mM NaCl
Non-standard residues stand in square brackets, D forms with d. No end group written: not given here. pY = N[C@@H](Cc1ccc(OP(=O)(O)O)cc1)C(=O)O
reported_metric: Kd (nM)
# unit: nM | format: bare number

What measured Kd goes with NQL[pY]NELNLGRREE[pY]DVLD (also: AlexaFluor 488 label, position not given here) [ITAM-ζ1-Y2P peptide labeled with AlexaFluor488] ?
84.9
